Give log10 of IC50 for every item shown.
# values: log10(IC50), units nM

Lookup: Value wanted: log10 of IC50 (HCK (Homo sapiens)) of entry CN1C2CCC1CN([C@H]1CC[C@H](n3nc(-c4ccc(NC(=O)c5cc6ccccc6n5C)cc4)c4c(N)ncnc43)CC1)C2
Found: 0.99

Lookup: Value wanted: log10 of IC50 (HCK (Homo sapiens)) of entry CN1C2CCC1CC(N[C@H]1CC[C@@H](n3nc(-c4ccc(Oc5ccccc5)cc4)c4c(N)ncnc43)CC1)C2 (some centres unmarked)
Found: 1.41

Lookup: Value wanted: log10 of IC50 (HCK (Homo sapiens)) of entry CN1[C@@H]2CC[C@H]1CN([C@H]1CC[C@H](n3cc(-c4ccc(Oc5ccccc5)cc4)c4c(N)ncnc43)CC1)C2
Found: 0.70

Lookup: Value wanted: log10 of IC50 (HCK (Homo sapiens)) of entry CN1CCN([C@H]2CC[C@H](n3cc(-c4ccc(Oc5ccccc5)cc4)c4c(N)ncnc43)CC2)CC1
Found: 0.04

Lookup: Value wanted: log10 of IC50 (HCK (Homo sapiens)) of entry COCCN1CCN([C@H]2CC[C@H](n3cc(-c4ccc(Oc5ccccc5)cc4)c4c(N)ncnc43)CC2)CC1
Found: 0.60

Lookup: Value wanted: log10 of IC50 (HCK (Homo sapiens)) of entry CCc1nnc2n1CCN([C@H]1CC[C@H](n3cc(-c4ccc(NC(=O)c5cc6ccccc6n5C)c(OC)c4)c4c(N)ncnc43)CC1)C2
Found: 1.15

Lookup: Value wanted: log10 of IC50 (HCK (Homo sapiens)) of entry Cn1ccc(CN[C@H]2CC[C@@H](n3cc(-c4ccc(Oc5ccccc5)cc4)c4c(N)ncnc43)CC2)n1
Found: 0.90

Lookup: Value wanted: log10 of IC50 (HCK (Homo sapiens)) of entry CN1C2CC[C@@H]1CN(C1CCC(n3nc(-c4ccc(Oc5ccccc5)cc4)c4c(N)ncnc43)CC1)C2 (some centres unmarked)
Found: -0.30

Lookup: Value wanted: log10 of IC50 (HCK (Homo sapiens)) of entry Nc1ncnc2c1c(-c1ccc(Oc3ccccc3)cc1)cn2[C@H]1CC[C@@H](NCc2ccccn2)CC1
Found: 0.81

Lookup: Value wanted: log10 of IC50 (HCK (Homo sapiens)) of entry CN1CCN([C@H]2CC[C@H](n3cc(-c4ccc(NC(=O)CCc5ccccc5)cc4)c4c(N)ncnc43)CC2)CC1
Found: 1.51

Lookup: Value wanted: log10 of IC50 (HCK (Homo sapiens)) of entry COc1cc(-c2cn([C@H]3CC[C@H](N4CCN(C)CC4)CC3)c3ncnc(N)c23)ccc1NC(=O)c1cc2ccccc2n1C
Found: 0.20

====

TESTED ON: FLT3-ITD (Homo sapiens, UniProt P36888, ITD)
Sequence (P36888 27-993, change not shown): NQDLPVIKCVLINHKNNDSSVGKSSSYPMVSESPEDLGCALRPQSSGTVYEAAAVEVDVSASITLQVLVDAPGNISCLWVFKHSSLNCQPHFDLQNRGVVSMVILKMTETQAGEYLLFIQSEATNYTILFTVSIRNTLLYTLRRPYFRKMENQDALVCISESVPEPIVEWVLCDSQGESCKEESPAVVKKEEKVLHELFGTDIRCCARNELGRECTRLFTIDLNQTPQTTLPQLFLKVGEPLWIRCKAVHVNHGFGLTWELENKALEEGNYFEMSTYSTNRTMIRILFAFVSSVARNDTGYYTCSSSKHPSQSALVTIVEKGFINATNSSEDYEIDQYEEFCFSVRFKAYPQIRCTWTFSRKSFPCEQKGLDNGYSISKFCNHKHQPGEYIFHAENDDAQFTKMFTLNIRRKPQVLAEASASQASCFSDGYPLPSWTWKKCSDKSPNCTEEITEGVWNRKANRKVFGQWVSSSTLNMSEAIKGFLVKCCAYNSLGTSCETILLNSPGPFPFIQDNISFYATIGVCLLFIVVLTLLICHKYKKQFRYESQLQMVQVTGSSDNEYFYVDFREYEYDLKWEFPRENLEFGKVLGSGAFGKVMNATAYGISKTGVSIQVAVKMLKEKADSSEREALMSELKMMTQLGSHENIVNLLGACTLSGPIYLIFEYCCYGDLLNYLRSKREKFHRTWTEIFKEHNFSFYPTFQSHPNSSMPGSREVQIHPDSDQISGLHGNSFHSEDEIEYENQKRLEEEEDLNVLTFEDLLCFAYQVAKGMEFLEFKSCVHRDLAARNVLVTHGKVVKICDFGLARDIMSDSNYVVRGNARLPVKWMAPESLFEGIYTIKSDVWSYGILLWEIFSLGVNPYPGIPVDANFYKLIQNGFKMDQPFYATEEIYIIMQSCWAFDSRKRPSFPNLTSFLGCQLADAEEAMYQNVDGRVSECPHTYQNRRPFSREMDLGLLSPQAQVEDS
ASSAY EXPLANATION: FLT3-ITD kinase inhibition
MEASURED PARAMETER: IC50 (nM)
// units = nM; emit number, no label

Lookup: Looking for the measured IC50 of COc1cc(-c2cn([C@H]3CC[C@H](N4CCn5c(C)cnc5C4)CC3)c3ncnc(N)c23)ccc1NC(=O)c1cc2ccccc2n1C , can you help?
Found: 4620

Lookup: Looking for the measured IC50 of Nc1ncnc2c1c(-c1ccc(Oc3ccccc3)cc1)cn2[C@H]1CC[C@@H](N[C@H]2CCNC2=O)CC1 , can you help?
Found: 30

Lookup: Looking for the measured IC50 of Nc1ncnc2c1c(-c1ccc(Oc3ccccc3)cc1)cn2[C@H]1CC[C@@H](NCc2ccccn2)CC1 , can you help?
Found: 12

Lookup: Looking for the measured IC50 of CN1C2CCC1CN([C@H]1CC[C@@H](n3nc(-c4ccc(Oc5ccccc5)cc4)c4c(N)ncnc43)CC1)C2 , can you help?
Found: 27
